Below are IC50 values measured for MetRS (T. brucei) (Trypanosoma brucei brucei, UniProt Q38C91).
value-type: IC50

>>> reported_value("COCCCn1c(Cc2ccc(Cl)cc2Cl)cn(Cc2nc3ccc(F)nc3[nH]2)c1=O")
"< 40 nM"
>>> reported_value("CCn1c(C(=O)c2ccc(Cl)cc2Cl)cn(Cc2nc3ccc(Cl)nc3[nH]2)c1=O")
"< 40 nM"
>>> reported_value("CC(C)(O)Cn1c(Cc2ccc(Cl)cc2Cl)cn(Cc2nc3ccc(Cl)nc3[nH]2)c1=O")
"< 40 nM"

----------
biological target: MetRS (C. parvum) (Cryptosporidium parvum); assay: MetRS (C. parvum) enzyme inhibition; assay type: biochemical
Sequence (Q5CVN0 entry or part of it): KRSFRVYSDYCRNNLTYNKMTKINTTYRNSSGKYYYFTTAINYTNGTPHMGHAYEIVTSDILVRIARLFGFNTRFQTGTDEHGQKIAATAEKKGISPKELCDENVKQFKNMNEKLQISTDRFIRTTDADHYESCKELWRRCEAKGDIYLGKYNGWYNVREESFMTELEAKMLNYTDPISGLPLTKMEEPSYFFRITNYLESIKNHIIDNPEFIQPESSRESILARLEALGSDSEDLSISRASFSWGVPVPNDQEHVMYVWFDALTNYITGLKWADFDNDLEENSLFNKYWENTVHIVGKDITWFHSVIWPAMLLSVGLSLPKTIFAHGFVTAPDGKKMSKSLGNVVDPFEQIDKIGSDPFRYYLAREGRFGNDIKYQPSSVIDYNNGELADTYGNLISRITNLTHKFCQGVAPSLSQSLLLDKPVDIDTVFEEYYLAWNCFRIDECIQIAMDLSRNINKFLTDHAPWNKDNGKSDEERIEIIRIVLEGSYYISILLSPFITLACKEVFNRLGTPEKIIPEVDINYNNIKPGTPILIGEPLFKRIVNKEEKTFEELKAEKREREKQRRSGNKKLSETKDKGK
value-type: IC50 (nM)

>>> reported_value("Clc1ccc(Cc2cn(Cc3nc4cc(Cl)ccc4[nH]3)cn2)c(Cl)c1 [Compound 2192]")
114
